Molecular target: EGFR^L858R (Homo sapiens, UniProt P00533, L858R)
Sequence (P00533 25-1210 L858R): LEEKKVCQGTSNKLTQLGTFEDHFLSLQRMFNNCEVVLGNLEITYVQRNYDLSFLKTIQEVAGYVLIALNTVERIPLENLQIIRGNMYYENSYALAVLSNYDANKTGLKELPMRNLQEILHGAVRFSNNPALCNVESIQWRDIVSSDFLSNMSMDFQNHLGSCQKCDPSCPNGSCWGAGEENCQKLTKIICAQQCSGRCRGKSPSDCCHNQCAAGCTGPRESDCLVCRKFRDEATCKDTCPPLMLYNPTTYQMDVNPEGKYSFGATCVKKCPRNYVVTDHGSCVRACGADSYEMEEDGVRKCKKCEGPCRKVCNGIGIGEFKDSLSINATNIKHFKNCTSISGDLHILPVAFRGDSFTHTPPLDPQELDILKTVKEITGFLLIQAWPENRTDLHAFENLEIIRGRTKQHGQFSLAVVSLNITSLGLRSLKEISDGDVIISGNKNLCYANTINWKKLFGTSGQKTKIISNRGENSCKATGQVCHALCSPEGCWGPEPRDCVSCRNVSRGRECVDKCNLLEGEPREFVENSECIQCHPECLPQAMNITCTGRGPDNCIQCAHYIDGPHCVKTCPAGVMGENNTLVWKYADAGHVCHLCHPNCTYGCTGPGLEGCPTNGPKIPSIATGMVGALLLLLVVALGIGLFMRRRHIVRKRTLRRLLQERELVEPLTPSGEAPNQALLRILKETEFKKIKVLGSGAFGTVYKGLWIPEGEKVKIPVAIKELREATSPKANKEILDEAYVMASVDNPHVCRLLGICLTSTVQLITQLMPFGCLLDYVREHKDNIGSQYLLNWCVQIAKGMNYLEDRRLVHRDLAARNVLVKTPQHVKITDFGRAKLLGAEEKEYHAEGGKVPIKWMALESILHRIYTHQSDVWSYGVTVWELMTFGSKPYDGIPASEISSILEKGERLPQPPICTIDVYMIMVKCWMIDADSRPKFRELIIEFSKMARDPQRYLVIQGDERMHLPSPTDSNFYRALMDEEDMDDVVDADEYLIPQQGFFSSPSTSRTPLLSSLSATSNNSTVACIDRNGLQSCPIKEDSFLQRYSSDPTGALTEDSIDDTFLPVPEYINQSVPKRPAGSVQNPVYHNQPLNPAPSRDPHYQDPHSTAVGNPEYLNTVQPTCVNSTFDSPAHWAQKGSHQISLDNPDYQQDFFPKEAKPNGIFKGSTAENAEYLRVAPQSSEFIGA
Assay: in vitro kinase assay (HTRF KinEASE-TK kit), L
Conditions: kinase inhibition
Listed below: IC50 values for each entry.
readout-label: IC50

[
  {
    "smiles": "C[C@H]1CCOc2c(cnn2C)-c2nccc(n2)Nc2cc3c(cn2)c(-c2cnn(CCN(C)C)c2)nn31",
    "readout-label": "IC50",
    "measured-result": "< 10 nM"
  },
  {
    "smiles": "C[C@H]1CCOc2c(cnn2C)-c2nccc(n2)Nc2cc3c(cn2)c(-c2cn(C)cn2)nn31",
    "readout-label": "IC50",
    "measured-result": "10 to 100 nM"
  },
  {
    "smiles": "C[C@H]1CCCOc2c(cnn2C)-c2nccc(n2)Nc2cc3c(cn2)c(N2CCC2)nn31",
    "readout-label": "IC50",
    "measured-result": "10 to 100 nM"
  },
  {
    "smiles": "C[C@H]1CCOc2c(cnn2C)-c2nccc(n2)Nc2cc3c(cn2)c(-c2cnc(CN4CCN(C)CC4)s2)nn31",
    "readout-label": "IC50",
    "measured-result": "< 10 nM"
  },
  {
    "smiles": "CCN(CC)CCOc1cc(-c2nn3c4cc(ncc24)Nc2ccnc(n2)-c2cnn(C)c2OCC[C@@H]3C)ccc1Cl",
    "readout-label": "IC50",
    "measured-result": "< 10 nM"
  },
  {
    "smiles": "C[C@H]1CCOc2c(cnn2C)-c2nccc(n2)Nc2cc3c(cn2)c(N2CCC2)nn31",
    "readout-label": "IC50",
    "measured-result": "< 10 nM"
  },
  {
    "smiles": "CCn1cc(-c2nn3c4cc(ncc24)Nc2ccnc(n2)-c2cnn(C)c2OCC[C@@H]3C)cc1CN1CCOCC1",
    "readout-label": "IC50",
    "measured-result": "< 10 nM"
  },
  {
    "smiles": "COCCN(C)Cc1ccc(-c2nn3c4cc(ncc24)Nc2ccnc(n2)-c2cnn(C)c2OCC[C@@H]3C)n1C",
    "readout-label": "IC50",
    "measured-result": "< 10 nM"
  },
  {
    "smiles": "C[C@H]1CCOc2c(cnn2C)-c2nccc(n2)Nc2cc3c(cn2)c(N2CC[C@H](N(C)C)C2)nn31",
    "readout-label": "IC50",
    "measured-result": "10 to 100 nM"
  }
]

----------
Target: EGFR^L858R (Homo sapiens, UniProt P00533, L858R)
Test: in vitro kinase assay (HTRF KinEASE-TK kit), L
Settings: kinase inhibition
pIC50: −log10 of the molar value.
Listed below: pIC50 values for each entry.

[
  {
    "compound": "C[C@H]1CCOc2c(cnn2C)-c2nccc(n2)Nc2cc3c(cn2)c(-c2ccncc2)nn31",
    "pIC50": "7.00 to 8.00"
  },
  {
    "compound": "Cn1ncc2c1OCCCn1nc(N3CCCC3CO)c3cnc(cc31)Nc1ccnc-2n1 (stereo not drawn)",
    "pIC50": "6.00 to 7.00"
  },
  {
    "compound": "CCn1cc(-c2nn3c4cc(ncc24)Nc2ccnc(n2)-c2cnn(C)c2OCC[C@@H]3C)cc1CN(C)C",
    "pIC50": "> 8.00"
  },
  {
    "compound": "C[C@H]1CCOc2c(cnn2C)-c2nccc(n2)Nc2cc3c(cn2)c(-c2ccn(C)c2)nn31",
    "pIC50": "> 8.00"
  },
  {
    "compound": "CCCn1cc(-c2nn3c4cc(ncc24)Nc2ccnc(n2)-c2cnn(C)c2OCC[C@@H]3C)cc1CN1CCOCC1",
    "pIC50": "> 8.00"
  },
  {
    "compound": "CC(C)N1CCN(CC2CCN(c3nn4c5cc(ncc35)Nc3ccnc(n3)-c3cnn(C)c3OCC[C@@H]4C)C2)CC1 (stereo partly drawn)",
    "pIC50": "> 8.00"
  },
  {
    "compound": "CC1CCCOc2c(cnn2C)-c2nccc(n2)Nc2cc3c(cn2)c(-c2ccc(CN4CCN(C5CC5)CC4)o2)nn31 (stereo not drawn)",
    "pIC50": "7.00 to 8.00"
  },
  {
    "compound": "C[C@H]1CCOc2c(cnn2C)-c2nccc(n2)Nc2cc3c(cn2)c(-c2cccc(N4CCC(O)CC4)c2)nn31",
    "pIC50": "> 8.00"
  },
  {
    "compound": "CC1CCCOc2c(cnn2C)-c2nccc(n2)Nc2cc3c(cn2)c(N2CCCC2)nn31 (stereo not drawn)",
    "pIC50": "> 8.00"
  }
]

----------
Listed below: IC50 values for each entry.
Tested on: Ba/F3 Parental
Experiment: Ba/F3 viability assay (CellTiter-Glo), parental
Type: cell-based
Conditions: Mus musculus, BaF3, anti-proliferation

[
  {
    "compound": "C[C@H]1CCOc2c(cnn2C)-c2nccc(n2)Nc2cc3c(cn2)c(-c2cc(CN4CCN(C)CC4)n(C)c2)nn31",
    "measured-on": "Ba/F3 Parental",
    "IC50": "0.01 to 0.1 µM"
  },
  {
    "compound": "CC1CCCCOc2c(cnn2C)-c2nccc(n2)Nc2cc3c(cn2)c(N2CCC2)nn31 (stereo not drawn)",
    "measured-on": "Ba/F3 Parental",
    "IC50": "≥ 1 µM"
  },
  {
    "compound": "CCC1CCOc2c(cnn2C)-c2nccc(n2)Nc2cc3c(cn2)c(N2CCC2)nn31 (stereo not drawn)",
    "measured-on": "Ba/F3 Parental",
    "IC50": "≥ 1 µM"
  },
  {
    "compound": "C[C@H]1CCOc2c(cnn2C)-c2nccc(n2)Nc2cc3c(cn2)c(-c2cc(OCCN(C)C)ccc2F)nn31",
    "measured-on": "Ba/F3 Parental",
    "IC50": "≥ 1 µM"
  },
  {
    "compound": "CN(C)CC1CCCN1c1nn2c3cc(ncc13)Nc1ccnc(n1)-c1cnn(C)c1OCCC2 (stereo not drawn)",
    "measured-on": "Ba/F3 Parental",
    "IC50": "0.1 to 1 µM"
  },
  {
    "compound": "CCn1c(CN(C)C)ccc1-c1nn2c3cc(ncc13)Nc1ccnc(n1)-c1cnn(C)c1OCC[C@@H]2C",
    "measured-on": "Ba/F3 Parental",
    "IC50": "0.1 to 1 µM"
  },
  {
    "compound": "CN1CCN(C(=O)C2CCN(c3nn4c5cc(ncc35)Nc3ccnc(n3)-c3cnn(C)c3OCCC4)C2)CC1 (stereo not drawn)",
    "measured-on": "Ba/F3 Parental",
    "IC50": "≥ 1 µM"
  },
  {
    "compound": "C[C@H]1CCOc2c(cnn2C)-c2nccc(n2)Nc2cc3c(cn2)c(-c2ccc(CN4CCOCC4)o2)nn31",
    "measured-on": "Ba/F3 Parental",
    "IC50": "0.1 to 1 µM"
  },
  {
    "compound": "CCN(CC)CCOc1cc(F)cc(-c2nn3c4cc(ncc24)Nc2ccnc(n2)-c2cnn(C)c2OCC[C@@H]3C)c1",
    "measured-on": "Ba/F3 Parental",
    "IC50": "0.1 to 1 µM"
  },
  {
    "compound": "C[C@H]1CCOc2c(cnn2C)-c2nccc(n2)Nc2cc3c(cn2)c(-c2cnc(CN4CCN(C)CC4)s2)nn31",
    "measured-on": "Ba/F3 Parental",
    "IC50": "0.1 to 1 µM"
  },
  {
    "compound": "C[C@H]1CCOc2c(cnn2C)-c2nccc(n2)Nc2cc3c(cn2)c(N2CC[C@H](N(C)CCF)C2)nn31",
    "measured-on": "Ba/F3 Parental",
    "IC50": "0.1 to 1 µM"
  },
  {
    "compound": "CCN(CC)CCN(C)c1cc(F)cc(-c2nn3c4cc(ncc24)Nc2ccnc(n2)-c2cnn(C)c2OCC[C@@H]3C)c1",
    "measured-on": "Ba/F3 Parental",
    "IC50": "0.1 to 1 µM"
  }
]

----------
Target: Ba/F3 EGFR-Del19/C797S (Homo sapiens, UniProt P00533, C797S, cells depend on it, form not given)
Sequence (P00533 with tags, fused parts or gaps DEL746-750/C797S, form open): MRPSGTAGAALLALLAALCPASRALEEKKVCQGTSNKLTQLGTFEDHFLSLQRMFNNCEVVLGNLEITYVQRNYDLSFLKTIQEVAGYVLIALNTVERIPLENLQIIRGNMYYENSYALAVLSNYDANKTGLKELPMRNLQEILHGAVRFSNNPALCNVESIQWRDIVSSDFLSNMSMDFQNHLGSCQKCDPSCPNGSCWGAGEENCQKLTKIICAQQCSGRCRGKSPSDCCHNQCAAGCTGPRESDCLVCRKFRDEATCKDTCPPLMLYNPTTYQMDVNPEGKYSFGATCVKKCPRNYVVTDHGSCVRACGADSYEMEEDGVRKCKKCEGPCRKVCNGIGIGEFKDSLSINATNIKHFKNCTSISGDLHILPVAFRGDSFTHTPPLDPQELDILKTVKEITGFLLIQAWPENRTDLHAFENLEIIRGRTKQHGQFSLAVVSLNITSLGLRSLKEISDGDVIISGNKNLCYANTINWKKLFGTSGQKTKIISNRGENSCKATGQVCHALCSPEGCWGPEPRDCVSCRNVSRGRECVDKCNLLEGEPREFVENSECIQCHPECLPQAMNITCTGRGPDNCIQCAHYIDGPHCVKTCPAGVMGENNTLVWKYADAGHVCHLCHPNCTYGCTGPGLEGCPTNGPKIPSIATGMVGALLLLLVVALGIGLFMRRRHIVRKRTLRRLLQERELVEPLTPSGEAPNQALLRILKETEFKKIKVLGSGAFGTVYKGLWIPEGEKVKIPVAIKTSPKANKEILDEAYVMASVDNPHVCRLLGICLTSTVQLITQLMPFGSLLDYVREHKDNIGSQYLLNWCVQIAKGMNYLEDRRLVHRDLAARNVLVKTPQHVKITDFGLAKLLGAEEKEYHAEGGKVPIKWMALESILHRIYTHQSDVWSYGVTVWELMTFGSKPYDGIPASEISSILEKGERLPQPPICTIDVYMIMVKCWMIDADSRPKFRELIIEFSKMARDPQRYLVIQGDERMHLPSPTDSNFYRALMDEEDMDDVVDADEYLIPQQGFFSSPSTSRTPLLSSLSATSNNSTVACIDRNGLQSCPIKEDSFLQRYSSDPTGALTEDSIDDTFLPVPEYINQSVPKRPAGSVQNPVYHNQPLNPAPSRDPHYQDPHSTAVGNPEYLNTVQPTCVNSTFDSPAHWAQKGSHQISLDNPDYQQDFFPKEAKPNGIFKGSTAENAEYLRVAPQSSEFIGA
Experiment: Ba/F3 viability assay (CellTiter-Glo), DC
Assay type: cell-based
Conditions: anti-proliferation, read-out: BaF3 DC IC50
readout-label: GI50

[
  {
    "molecule": "Cn1ncc2c1OCCCn1nc(N3CCCC3C(=O)O)c3cnc(cc31)Nc1ccnc-2n1 (stereo not shown)",
    "readout-label": "GI50",
    "measured-result": "0.1 to 1 µM"
  },
  {
    "molecule": "CCCN1CCN(Cc2cnc(-c3nn4c5cc(ncc35)Nc3ccnc(n3)-c3cnn(C)c3OCC[C@@H]4C)s2)CC1",
    "readout-label": "GI50",
    "measured-result": "0.01 to 0.1 µM"
  },
  {
    "molecule": "C[C@H]1CCOc2c(cnn2C)-c2nccc(n2)Nc2cc3c(cn2)c(-c2ccc(CN(C)C)o2)nn31",
    "readout-label": "GI50",
    "measured-result": "< 0.01 µM"
  },
  {
    "molecule": "CCn1cc(-c2nn3c4cc(ncc24)Nc2ccnc(n2)-c2cnn(C)c2OCC[C@@H]3C)cc1CN1CCN(C)CC1",
    "readout-label": "GI50",
    "measured-result": "< 0.01 µM"
  },
  {
    "molecule": "C[C@H]1CCOc2c(cnn2C)-c2nccc(n2)Nc2cc3c(cn2)c(-c2ccnc(N4CCN(C)CC4)c2)nn31",
    "readout-label": "GI50",
    "measured-result": "0.01 to 0.1 µM"
  },
  {
    "molecule": "CN1CCN(C(=O)C2CCN(c3nn4c5cc(ncc35)Nc3ccnc(n3)-c3cnn(C)c3OCCC4)C2)CC1 (stereo not shown)",
    "readout-label": "GI50",
    "measured-result": "0.1 to 1 µM"
  },
  {
    "molecule": "C[C@H]1CCOc2c(cnn2C)-c2nccc(n2)Nc2cc3c(cn2)c(-c2ccc(CN4CCN(C)CC4)cc2)nn31",
    "readout-label": "GI50",
    "measured-result": "< 0.01 µM"
  },
  {
    "molecule": "CC1CCCOc2c(cnn2C)-c2nccc(n2)Nc2cc3c(cn2)c(-c2ccnn2C)nn31 (stereo not shown)",
    "readout-label": "GI50",
    "measured-result": "0.01 to 0.1 µM"
  },
  {
    "molecule": "CCn1cc(-c2nn3c4cc(ncc24)Nc2ccnc(n2)-c2cnn(C)c2OCC[C@@H]3C)cc1CN(C)C",
    "readout-label": "GI50",
    "measured-result": "< 0.01 µM"
  },
  {
    "molecule": "Cn1ncc2c1OCCCn1nc(N3CCC3)c3cnc(cc31)Nc1ccnc-2n1",
    "readout-label": "GI50",
    "measured-result": "0.1 to 1 µM"
  }
]
